# Specific activity, 4-O-methyl butein per entry
# ASSAY_NOTES: Specific activity of purified CHI, absorbance decrease at 384 nm, 4-O-methyl butein; also: unit not given here
# Type: biochemical
# CONDITION_DETAILS: purified CHI in 50 mM PBS, 100 μM substrate, 25° C.
Would you mind answering with just the numeric figure?

MOLECULE	RECORDED_RESULT
CHIera: Chalcone isomerase from Eubacterium ramulus (protein, listed as Eubacterium ramulus) ADFKFEPMRSLIYVDCVSEDYRPKLQRWIYKVHIPDSISQFEPYVTKYAFYPSFPIPPQGDRFGYARMQLTEHHWLVSDLDPRLEIKAIAETFPMDVLVWQGQIPAAAHTDAQIDSDGDAGNAARKSNNAEGNPFIFAFLPMWWEKDLKGKGRTIEDGANYRFNMTIGFPEGVDKAEGEKWLFEKVVPILQAAPECTRVLASAVKKDINGCVMDWVLEIWFENQSGWYKVMVDDMKALEKPSWAQQDAFPFLKPYHNVCSAAVADYTPSNNLANYRGYITMR	0.1

Now consider the entry below.
// query Form field: reported Specific activity, 4-O-methyl butein of CHIera Mut13: Chalcone isomerase variant 13 from Eubacterium ramulus, genetically engineered (protein, listed as Eubacterium ramulus) MADFKFEPMRSLIYVDCVSEDYRPKLQRWIYKVHIPDSISKFEPYVTKYAFYPSFPIPPQGDRFGYARMQLTEHHWLVSPLDPRLEINAIAETFPMDVLVWQGQIPAAAHTDAQIDSDGDADDAARKSNNAEGNPFIFAFLPMWWEKDLKGKGRTIEDGANYRFNMTIGFPEGVDKAEGEKWLFEKVVPILQAAPECTRVLASAVKKDINGCVMDWVLEIWFENQSGWYKVMVDDMKALEKPSWAQQDAFPFLKPYHNVCSAAVADYTPSNNLANYRGYITMR
// result 1.4
